- ASSAYED SYSTEM: Cytochrome P450 2C9 (Homo sapiens)
- ASSAY: Cytochrome P450 family 2 subfamily C member 9 (CYP2C9) small molecule antagonists: luciferase biochemical (cell-free) qHTS assay (AID 1645842); note: nearly all actives have a fitted effect of over 55% in size; note: potency is the fitted concentration of half-maximal effect
- ASSAY SETUP: P450-Glo CYP2C9 enzyme assay, luciferin luminescence; series mostly up to 57.4 µM
Inconclusive results are not listed. The source made the active and inactive calls. Calls come from the whole dose curve; as a rule, active = well fitted inhibition curve with a large enough effect in the repeat runs; inconclusive = weak or mixed curves; inactive = no such curve, though single readings can be large or run the other way.
OBSERVABLE: Potency

The cases that follow already have their Potency on record.
>>> recorded_measurement("Cc1oc(-c2cccc(Cl)c2)nc1Cn1c(SCc2ccccc2F)nc2ccncc21")
"7.56 µM (active)"
>>> recorded_measurement("Cc1cc2c(F)c(Oc3ncnn4cc(OC[C@@H](C)OC(=O)[C@H](C)N)c(C)c34)ccc2[nH]1")
"2.39 µM (active)"
>>> recorded_measurement("COC(=O)c1ccc(C2C=C(c3ccc(Cl)cc3)Nc3nc4ccccc4n32)cc1 (configuration not stated)")
"2.68 µM (active)"
>>> recorded_measurement("COc1ccc(OC)c(/C=C(\\C#N)c2nc3ccccc3c(=O)[nH]2)c1")
"1.51 µM (active)"
>>> recorded_measurement("CC(C)c1ccc(NC(=O)CSC2=Nc3ccccc3C3=NC(CC(=O)NC4CCCCC4)C(=O)N23)cc1 (configuration not stated)")
"12 µM (active)"
>>> recorded_measurement("CN(C)S(=O)(=O)c1ccc(S(=O)(=O)N(Cc2ccccc2Cl)C[C@@H]2CCCO2)cc1")
"9.52 µM (active)"

Please state, for each entry, its recorded Potency.
1. Cc1cccc(Cc2c(C)nc3c(-c4ccccc4)c(C)[nH]n3c2=O)c1
2. C#C[C@]1(O)CC[C@@H]2[C@@H]3CCC4=CCCC[C@@H]4[C@H]3C(=C)C[C@@]21CC
3. Clc1cccc(-n2ncc3c(NCCCn4ccnc4)ncnc32)c1
4. COCCCNC(=O)C(=O)Nc1c2c(nn1-c1cccc(Cl)c1)CSC2
5. Cc1cc(O)c(Cl)c(C)c1Cl
6. Cc1cccc(NC(c2ccccc2F)c2ccc3ccc(C)nc3c2O)n1 (configuration not stated)

Resp:
1: inactive; 2: 3.38 µM (active); 3: 0.379 µM (active); 4: 8.49 µM (active); 5: inactive; 6: 6.01 µM (active)

Please state, for each entry, its recorded Potency.
1. O=C(NCc1ccco1)c1ccc2c(c1)N(Cc1cccc(Cl)c1)C(=O)c1ccccc1S2=O (configuration not stated)
2. COc1ccccc1Cn1cc(C(=O)c2ccc(Cl)cc2)c(=O)c2cc3c(cc21)OCCO3
3. CN[C@@H](C)C(=O)N[C@H](C(=O)N1CCC[C@H]1c1nc(C(=O)c2ccc(F)cc2)cs1)C1CCCCC1

Resp:
1.34 µM (active)
2.68 µM (active)
inactive

Please state, for each entry, its recorded Potency.
1. Cc1ccc(CNC(=O)C2CCN(S(=O)(=O)c3c(C)noc3/C=C/c3ccccc3F)CC2)o1
2. Cc1cccc(NC(c2cccc(Cl)c2)c2ccc3cccnc3c2O)n1 (configuration not stated)
3. Cc1cccc(OCCCSc2nc(-c3ccc(C(C)(C)C)cc3)nc3cc(=O)[nH]n23)c1C
4. COc1ccc(CCNC(=O)c2nc(SCc3ccccc3F)ncc2Cl)cc1OC
5. CCOc1ccc(CNC(=O)Cn2c(=O)c3cccn3c3ccc(F)cc32)cc1
6. Cc1ccc(NC(=O)Cn2c(=O)n(CCC(=O)N3CCc4ccccc4C3)c(=O)c3ccccc32)c(C)c1

Resp:
1. inactive
2. 28.2 µM (active)
3. 13.5 µM (active)
4. 0.379 µM (active)
5. inactive
6. 0.338 µM (active)

Req: Which Potency is reported for this compound? `COc1ccc(-c2n[nH]c3c2cnc2cc(OC)c(OC)cc23)cc1`
Resp: inactive
